TESTED_SYSTEM: T1, HLA-A*0201 molecule on human T2 cells (human)
T1 construct: read out with anti-HLA-A2 antibody BB7.2-PE; also called HLA-A2
PROTOCOL_NOTES: T2 cells expressing HLA-A*0201, anti-HLA-A2-PE, FACS
EXPERIMENTAL_ENDPOINT: Concentration of peptide that induces 20% of HLA-A2 expression (µM)
Give a bare numeral; the unit µM is implied.

Consider the reported Concentration of peptide that induces 20% of HLA-A2 expression for these binders:
FLDSLGFSL [TYMS-B2]: 2.7
FLPFGFILV [IL13RA2-B]: 2.9
LMDLSTTPL (Fragment of human FOXM1) [FOXM1-H2]: 12.6

Now let's try a different one.
Query: Given RLSSYLVEI [FOXM1-B] , respond with its Concentration of peptide that induces 20% of HLA-A2 expression.
Result: 46.7
